- Read-out: Actin alpha 1 (ACTA1), ACTA1 (gene 58)
- test_summary: BSK_MyoF_ACTA1: BioMAP Diversity Plus: MyoF Assay for Actin alpha 1 (ACTA1) Biomarker Activity (AID 2284244)
- study_conditions: primary human lung fibroblasts
- Experimental: BSK_MyoF is a cell-based, multiplexed-readout assay that uses lung fibroblasts, […], with measurements taken at 24 hours after chemical dosing in a microplate: 96-well plate.BSK_MyoF_ACTA1 is an assay component measured in the BSK_MyoF assay. […] The levels of cell surface (or secreted, indicated by the prefix "s") biomarker endpoints were measured by ELISA. […] Plates were read after 6 h.
The source made the active and inactive calls. How the source made its calls: active means hit-call score of the fitted dose curve at least 0.9, where 1 is the maximum; inactive means score below 0.9.
Allowed answers: active, inactive

smiles_input: BrCCBr
label_value: inactive
//
smiles_input: COC(=O)c1sccc1S(=O)(=O)NC(=O)Nc1nc(C)nc(OC)n1
label_value: inactive
//
smiles_input: C(=NC1CCCCC1)=NC1CCCCC1
label_value: active

In the following, a different molecule is considered.
### Prompt Hi, sorry to bother you, what did the test record for `ClC(Cl)=C(Cl)C(Cl)=C(Cl)Cl` ?
### Response active

----------
- test_summary: ATG_DR4_LXR_CIS: Attagene CIS-FACTORIAL HepG2 Assay for human Liver X Receptor (LXR), DR4 submotif (AID 2282929)
- study_conditions: HepG2 Attagene DR4 cis-reporter, mRNA transcription; actives raise or lower the signal
- Experimental: ATG_CIS is a cell-based, multiplexed-readout assay that uses HepG2, a human liver cell line, with measurements taken at 24 hours after chemical dosing in a 24-well plate.ATG_DR4_LXR_CIS is one of 52 assay component(s) measured or calculated from the ATG_CIS assay. […] This assay endpoint, ATG_DR4_LXR_CIS, was analyzed with bidirectional fitting relative to DMSO as the negative control and baseline of activity. […]
The source made the active and inactive calls. The calls were made as follows: active = hit-call score of the fitted dose curve at least 0.9, where 1 is the maximum; inactive = score below 0.9.
Your response should consist of one outcome taken from active, inactive

Would you please look over these solved cases?
compound: ClCc1ccccn1
label_value: inactive
--
compound: O=C1C(Cl)=C(Cl)C(=O)c2ccccc21
label_value: inactive
--
compound: C=CCc1ccc(OC)cc1
label_value: inactive
--
compound: c1ccc(N=NNc2ccccc2)cc1
label_value: active
--
compound: C=CC#N
label_value: inactive

### Prompt Give the logged outcome of this assay for the following compound: `CN(C)P(=O)(N(C)C)N(C)C`
### Response inactive

### Prompt Hi team, can someone confirm the assay call for `C=C(C)C#N` ?
### Response inactive

### Prompt Any idea what this test logged for CCC(=O)C(CC(C)N(C)C)(c1ccccc1)c1ccccc1 (configuration not stated) ?
### Response active

### Prompt Outcome? `CCOC(=O)Nc1cccc(OC(=O)Nc2ccccc2)c1`
### Response inactive

### Prompt I would be grateful if you could indicate the recorded call for `CCc1ccccc1N` .
### Response inactive

----------
- test_summary: APR_HepG2_MitoMembPot_72hr: Apredica 72-hour HepG2 Assay for Mitochondrial Membrane Potential (AID 2282917)
- study_conditions: imaging, actives raise or lower the signal
Activity calls are given as the source filed them. Rule for the calls: active = hit-call score of the fitted dose curve at least 0.9, where 1 is the maximum; inactive = score below 0.9.
// one of active, inactive, no free text

smiles_input: Cn1sc(Cl)cc1=O
label_value: active

smiles_input: O=C(Nc1ccc2[nH]ccc2c1)c1cc2cc(F)ccc2n1Cc1cccc(F)c1
label_value: active

### Prompt Kindly provide the recorded test outcome for the following molecule: `O=C(O)C(F)(F)C(F)(F)C(F)(F)C(F)(F)C(F)(F)C(F)(F)F`
### Response inactive

### Prompt # outcome recorded in this test, key = `Cc1ccccc1N`
### Response inactive

### Prompt Write down the call the test reported for this molecule. Item: `CCC(C)(C)c1ccc(O)c(C(C)(C)CC)c1`
### Response inactive

### Prompt # fetch the recorded call for `CC(C)(C)CC(C)(C)c1ccc(O)cc1` here
### Response inactive

### Prompt Call for entry `C[C@]12CCC(=O)C[C@@H]1CC[C@@H]1[C@@H]2CC[C@]2(C)[C@@H](O)CC[C@@H]12` :
### Response inactive

### Prompt Test call for this molecule, please: `O=C(O)C(Cl)(Cl)Cl`
### Response inactive

### Prompt Hi, sorry to bother you, what did the test record for `C=C(C)C(=O)[O][Sn]([CH2]CCC)([CH2]CCC)[CH2]CCC` ?
### Response inactive

### Prompt Could you check what this test reported for `Oc1cccc2cccnc12` ?
### Response inactive
